- System: YAP1 overexpression in U2OS cells
- assay_summary: Cell Painting morphological profile matching to YAP1/TAZ overexpression signature
- Assay type: cell-based, human
- test_conditions: Pearson correlation of Cell Painting signatures, U2OS cells
measurement_type: Corr. to YAP1 cluster
# respond with the number and nothing more

O=C(C[C@H]1CC[C@H](NC(=O)CCN2CCCCC2)[C@@H](CO)O1)Nc1nccs1 | 0.4988
CCc1nc(N)nc(N)c1-c1ccc(Cl)cc1 | 0.4503
O=C(C[C@@H]1C[C@H]2c3cc(NC(=O)C4CCC4)ccc3O[C@H]2[C@H](CO)O1)NCc1ccccn1 | 0.527
CNC[C@@H]1Oc2c(NS(=O)(=O)c3ccc(F)cc3)cccc2C(=O)N([C@H](C)CO)C[C@H]1C | 0.5004
c1ccc(CNc2ncnc3ccccc23)cc1 | 0.4622

Would you kindly share the measured Corr. to YAP1 cluster for O=C(Nc1ccc2c(c1)[C@H]1C[C@@H](CC(=O)N3CCCCC3)O[C@@H](CO)[C@H]1O2)C1CCOCC1 ? 0.4883

Also CO[C@@H]1CN(C)C(=O)c2ccc(NC(=O)c3ccc(-c4ccccc4)cc3)cc2OC[C@H](C)NC[C@@H]1C , if possible. −0.4317

Similarly, O=c1[nH]ccc2c(S(=O)(=O)N3CCCNCC3)cccc12 ? 0.4458
